Tested on: Rattus norvegicus
Experiment: Compound was evaluated for blood acetaldehyde levels elicited by compound after ethanol administration to rat
Format: functional
Acetaldehyde level values for the compounds below.

Example results:
CCCNC(=O)N1C(=O)CNC1=O :: ~0 µM
CCCNC(=O)N1C(=O)c2ccccc2S1(=O)=O :: ~500 µM

Per the records, this compound ( CCCNC(=O)NS(=O)(=O)c1ccc(Cl)cc1 [CHLORPROPAMIDE] ) has Acetaldehyde level equal to ~170 µM

----------
Acetaldehyde level values for the compounds below.
Tested on: Rattus norvegicus
Experiment: Compound was evaluated for blood acetaldehyde levels elicited by compound after ethanol administration to rat
Assay type: functional
Kindly answer with a numeric value in µM, unit omitted.

Example results:
CCCN1C(=O)CN(S(=O)(=O)c2ccc(Cl)cc2)C1=O :: 20
CCCNC(=O)SCc1ccccc1 :: 550

Attention now shifts to the item below.
Per the records, this compound ( CCCNC(=O)n1c(=O)cc[nH]c1=O ) has Acetaldehyde level equal to 700

----------
Tested on: Rattus norvegicus
Assay: Compound was evaluated for blood acetaldehyde levels elicited by compound after ethanol administration to rat
Format: functional
experimentalEndpoint: Acetaldehyde level

Example results:
CCCN(C(=O)N(CC)S(=O)(=O)c1ccc(Cl)cc1)C(=O)C(F)(F)F :: ~450 µM
C=CCN(C(=O)NCCC)S(=O)(=O)c1ccc(Cl)cc1 :: ~750 µM

Per the records, this compound ( CCCNC(=O)N(CC)S(=O)(=O)c1ccc(Cl)cc1 ) has Acetaldehyde level equal to ~410 µM
